molecular target: UniProt:P30561; assay: In vitro assay 3: antagonism in mouse cell line (AHR transactivation, firefly luciferase reporter, kynurenic acid prestimulated); type: cell-based; details: mouse Hepa 1c1c7 cells, 200 μM kynurenic acid, 20 hours, read-out: AHR Antagonism Mouse IC50
Sequence (P30561 whole entry P471L/N533S/M589L, form open): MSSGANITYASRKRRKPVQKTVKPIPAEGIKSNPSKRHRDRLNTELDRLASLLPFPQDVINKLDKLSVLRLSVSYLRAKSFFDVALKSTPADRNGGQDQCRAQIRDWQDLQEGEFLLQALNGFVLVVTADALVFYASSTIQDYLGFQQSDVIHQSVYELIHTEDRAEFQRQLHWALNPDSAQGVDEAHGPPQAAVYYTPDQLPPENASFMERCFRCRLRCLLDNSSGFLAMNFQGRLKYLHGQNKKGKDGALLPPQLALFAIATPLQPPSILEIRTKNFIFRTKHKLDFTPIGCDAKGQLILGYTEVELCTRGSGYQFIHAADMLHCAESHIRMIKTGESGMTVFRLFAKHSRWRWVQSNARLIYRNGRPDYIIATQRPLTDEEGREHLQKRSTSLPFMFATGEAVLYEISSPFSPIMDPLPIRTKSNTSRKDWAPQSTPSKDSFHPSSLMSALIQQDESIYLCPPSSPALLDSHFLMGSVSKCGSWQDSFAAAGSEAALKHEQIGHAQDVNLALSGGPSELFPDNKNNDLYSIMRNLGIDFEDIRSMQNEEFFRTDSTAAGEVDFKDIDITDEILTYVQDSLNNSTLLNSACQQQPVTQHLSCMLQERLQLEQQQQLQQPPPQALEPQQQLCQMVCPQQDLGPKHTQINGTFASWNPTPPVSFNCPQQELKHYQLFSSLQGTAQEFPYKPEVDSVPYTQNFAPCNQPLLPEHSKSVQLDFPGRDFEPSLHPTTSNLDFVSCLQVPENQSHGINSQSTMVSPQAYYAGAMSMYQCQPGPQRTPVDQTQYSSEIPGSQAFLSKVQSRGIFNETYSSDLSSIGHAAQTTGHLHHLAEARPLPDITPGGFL
value-type: pIC50
In simple prose, pIC50 is minus the logarithm base ten of a concentration in moles per litre.

{"compound": "CCC[C@@H](Nc1nc2ccccc2c2nc(-c3ccccc3OC(F)(F)F)nn12)C(=O)NC", "value-type": "pIC50", "measured-number": 8.41}

Item under review: COc1ccc(-c2nc3c4cccc(OCC(C)(F)F)c4nc(N[C@@H]4CCCCNC4=O)n3n2)cc1 . Reported pIC50? 6.57

Item under review: COc1cccc(-c2nc3c4c(C)cccc4nc(NC4CCCNC4=O)n3n2)c1 (stereo not shown) . Reported pIC50? 6.60

Item under review: CC[C@@H](Nc1nc2ccccc2c2nc(-c3ccc(OC)cc3)nn12)C(N)=O . Reported pIC50? 9.00

Item under review: O=C1NCCCC[C@@H]1Nc1nc2ccccc2c2nc(-c3ccc(Cl)cc3OC(F)F)nn12 . Reported pIC50? 8.63

Item under review: O=C1NCCCC[C@H]1Nc1nc2c(C(F)(F)F)cccc2c2nc(-c3ccc(F)cc3)nn12 . Reported pIC50? 9.32

Item under review: CC(C)Oc1ccc(-c2nc3c4ccccc4nc(N[C@@H]4CCCCNC4=O)n3n2)cc1 . Reported pIC50? 9.10

Item under review: COc1ccc(-c2nc3c4ccccc4nc(N[C@@H]4CCCCNC4=O)n3n2)c(F)c1 . Reported pIC50? 8.45

Item under review: COc1ccc2nc(N[C@@H]3CCCCNC3=O)n3nc(-c4ccc(F)cc4)nc3c2c1 . Reported pIC50? 7.99
